Hello, the source for this data is ChEMBL document CHEMBL5375943, in case you need it.

Experiment: Stability in human plasma assessed as compound remaining incubated for 10 mins relative to control
Type: ADME, cell-free
Conditions: read-out: Stability
measurement-name: remaining at 10 min (%)
Report the figure in % without appending any unit label.

Reported remaining at 10 min ( NCCOP(=O)(O)OC[C@@H](O)CNC(=O)c1ccncc1Nc1ccc(I)cc1F ) = 30

----------
Assay: AUC (0 to t) in Sprague-Dawley rat at 10 mg/kg, po
Type: ADME, organism-based
Parameters: dose 10 mg/kg, route po
Conditions: in vivo
measurement-name: AUC(0-t) (µM·h)
Respond with the bare value in µM·h.

CCc1cc(/C(C)=N/OCc2ccc(C3CCCCC3)c(C(F)(F)F)c2)ccc1CN1CC(C(=O)O[C@H]2CC[C@@]3(C)C(=CC[C@H]4[C@@H]5CC[C@H]([C@H](C)CCCC(C)C)[C@@]5(C)CC[C@@H]43)C2)C1 yielded AUC(0-t) of 0.19
